Target: Amine oxidase [flavin-containing] A (Rattus norvegicus)
Sequence (P21396 whole entry): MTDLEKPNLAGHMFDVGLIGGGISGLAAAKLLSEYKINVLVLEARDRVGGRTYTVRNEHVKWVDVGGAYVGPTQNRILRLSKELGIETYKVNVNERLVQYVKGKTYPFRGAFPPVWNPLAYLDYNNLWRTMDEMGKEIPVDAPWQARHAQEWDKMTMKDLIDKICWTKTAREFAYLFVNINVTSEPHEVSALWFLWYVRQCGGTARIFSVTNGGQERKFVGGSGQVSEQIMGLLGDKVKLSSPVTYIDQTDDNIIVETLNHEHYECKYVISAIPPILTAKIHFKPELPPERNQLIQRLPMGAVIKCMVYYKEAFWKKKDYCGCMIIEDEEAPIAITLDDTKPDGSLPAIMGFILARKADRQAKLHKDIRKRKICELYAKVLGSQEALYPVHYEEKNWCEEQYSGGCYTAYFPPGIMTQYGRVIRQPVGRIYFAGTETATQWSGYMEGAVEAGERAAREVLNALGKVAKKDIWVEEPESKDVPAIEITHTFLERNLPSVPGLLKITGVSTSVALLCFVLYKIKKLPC
Test: Inhibition of rat brain MAO-A relative to control
Type: tissue-based
measure: inhibition (INH) (%)
Answers are plain numbers, in %.

Below are worked cases with known answers.
1. CCn1c(SCC(=O)Nc2cccc(C(F)(F)F)c2)nc2c(c1=O)C1(CCCCC1)Cc1ccccc1-2; 15
2. CCn1c(SC)nc2c(c1=O)C1(CCCCC1)Cc1ccccc1-2; 66
3. CCn1c(SCC(=O)Nc2ccccc2)nc2c(c1=O)C1(CCCCC1)Cc1ccccc1-2; 32
4. CCn1c(SCC(=O)Nc2ccccc2Cl)nc2c(c1=O)C1(CCCCC1)Cc1ccccc1-2; 66
5. CCCN(CCC)C(=O)CSc1nc2c(c(=O)n1CC)C1(CCCCC1)Cc1ccccc1-2; 86
6. CCn1c(=S)[nH]c2c(c1=O)C1(CCCCC1)Cc1ccccc1-2; 58

Here is another compound to look at.
Test system Amine oxidase [flavin-containing] A (Rattus norvegicus); read-out inhibition (INH); what value for CCn1c(SCc2ccc(Cl)cc2)nc2c(c1=O)C1(CCCCC1)Cc1ccccc1-2 ?
50

Ref: ChEMBL document CHEMBL5233269
